Every entry's value here was drawn from PubChem BioAssay (NCI).

# procedure_summary: NCI Yeast Anticancer Drug Screen. Data for the sgs1 mgt1 strain (AID 161);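 further: 0% = growth of cultures given vehicle only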
# test_settings: S. cerevisiae sgs1 mgt1 strain, at 50.0 µM, stronger effect = higher value
Compounds without any hit were thinned out: in the full panel of roughly 79,000, 15% have a hit.
quantity: growth inhibition (%)
Numbers only, in %.

Would you please look over these solved cases?
molecule	growth inhibition (%)
CCn1c(=O)c2ccccc2c2cc([N+](=O)[O-])ccc21	2.75
COC1=CC(=O)c2ccc3ccccc3c2C1=O	89.4
O=C1c2c(Cl)cccc2C(c2ccccc2)c2cccc(Cl)c21	-1.55

Give measured growth inhibition for every item shown.
1. CC(O)CN1CNC(=S)NC1 (stereo not given)
2. CCOC(=O)NC(=S)C1=C(N2CCOCC2)CCC1
3. OC1CC2CCCCC2CC1Cl (stereo not given)
4. Cc1ccc(S(=O)(=O)N(C)c2cc(Cl)c(C(=O)O)cc2Cl)cc1
5. O=C(C[n+]1ccccc1)c1cc2c(c3ccccc13)CCCC2

# output
[-3.55, 1.95, 0.7, 5.85, 36.3]

Batch request: growth inhibition per item, same order as input.
1. CCCCCCNC(C)=O
2. c1ccc(OB(Oc2ccccc2)Oc2ccccc2)cc1
3. Cc1cc2nc3ccc(O)cc3[n+](C)c2cc1N
4. Cc1ccccc1-c1nnc(-c2ccc3ccccc3c2)o1

# output
[11.9, -7.25, 31.6, -4.65]

----------
# procedure_summary: NCI Yeast Anticancer Drug Screen. Data for the bub3 strain (AID 167)
# test_settings: S. cerevisiae bub3 mutant strain, at 50.0 µM
This is part of a sample that, as a whole, favours compounds with a hit. Of some 79,000 tested, about 15% had one in any assay. Activity calls are given as the source filed them. No stated cut-off is given here; in the data, active means growth inhibition above about 70%; inactive means the rest.
Choose one outcome from this list and give only that: active, inactive

Worked examples follow.
compound	category
COc1ccc(C(=O)/C=C/c2ccccc2)c(O)c1OC	inactive
CC(Cc1ccccc1)NC(=O)CCCN1C(=O)c2ccccc2C1=O (centres undefined)	inactive
Brc1nccs1	inactive

# input Could you kindly confirm the outcome this assay logged for Cc1ccc2c(c1)SC(c1cc3c(cc1Br)OCO3)S2 (centres undefined) ?
# output inactive

# input Test call for this compound, please: FC(F)(Br)C(F)(Cl)Br (centres undefined)
# output inactive

# input Lab log entry: CCCCS(=O)(=O)C1CCCC1=O (centres undefined) — outcome as called in the assay?
# output inactive

# input Identify the outcome logged in this assay for the compound shown: CCCC(C)C(O)C(C)C (centres undefined)
# output inactive

# input Entry `CCN(CC)CCOc1cccc(Oc2ccccc2)c1` : call = ?
# output inactive

# input Can you look up the reported call for `O=C1c2ccccc2C(=O)c2nc3ccc(Cl)cc3cc21` for me?
# output inactive

# input Just curious, what result did `CC(C)CC(=O)c1ccc2ccccc2c1O` get here?
# output inactive

# input Hi, sorry to bother you, what did the test record for CC(O)/C=C/c1ccccc1O (centres undefined) ?
# output inactive

# input Each compound tested received a call. Report the one for `BrCCCC1OCCO1` .
# output active

# input Can you look up the reported call for `Nc1nc(N)c2nc3c(nc2n1)C(=O)N(c1ccc(C(=O)O)cc1)C3` for me?
# output inactive

# input So what was the verdict on `O=C1OCc2cccc3c2-c2c1cccc2C(=O)OC3` in this test?
# output inactive

----------
Field: growth inhibition. Provide a value for each of the molecules that follow.
# procedure_summary: NCI Yeast Anticancer Drug Screen. Data for the mec2-1 strain (AID 157)
# test_settings: S. cerevisiae mec2-1 strain, at 50.0 µM, stronger effect = higher value
About 79,000 compounds went through this panel and 15% of them were active in at least one assay; those are over-represented in the sample as a whole.
Answers are plain numbers, in %.

molecule	growth inhibition [%]
CC(C)CC(NC(=O)OC(C)(C)C)C(=O)O (centres undefined)	-51.7
CO[C@@]12C[C@@H](C)C3=CCC(C)=C3CC1=C(C)C(=O)O2	-4.05
NC(=O)c1nnc2c(F)cccc2c1N	-29.4
O=C(O)C1CC1(C(=O)O)C(=O)O (centres undefined)	4.05
CN=S(=O)(OC/C=C/COS(=O)(=NC)c1ccc(C)cc1)c1ccc(C)cc1 (centres undefined)	-21.9
O=C1c2ccccc2C(=O)N1CCCSc1ccc(F)cc1	-9.5

Provide each entry's growth inhibition from the list below.
1. O=C1NC(=O)C2(N1)c1ccccc1-c1ccc(Br)cc12 (centres undefined)
2. CCOC(=O)Cn1c(=O)c2ccccc2c2cc([N+](=O)[O-])ccc21
3. CC(=O)Oc1cc2c(c3ccc4ccccc4c13)CCc1ccccc1-2
4. O=C1OC(c2cccc([N+](=O)[O-])c2)=N/C1=C\c1ccccc1
5. C=CCC1C(=O)NN=C1C (centres undefined)

# output
1. -8.9
2. 11.3
3. -11.7
4. 12.1
5. -12.1

Report growth inhibition for every entry below.
1. COc1cccc(/C=C\C(=O)c2ccccc(=O)c2O)c1OC
2. Cc1ccccc1-c1nnc(-c2ccc3ccccc3c2)o1

# output
1. 23.4
2. -4.25

----------
# procedure_summary: NCI Yeast Anticancer Drug Screen. Data for the sgs1 mgt1 strain (AID 161);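 further: 0% = growth of cultures given vehicle only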
# test_settings: S. cerevisiae sgs1 mgt1 strain, at 50.0 µM, stronger effect = higher value
This is part of a sample that, as a whole, favours compounds with a hit. Of some 79,000 tested, about 15% had one in any assay.
Provide the recorded growth inhibition for the entries that follow.
One number for each entry, in %.

Answered cases to consult:
molecule	quantity	val
COC(=O)c1cnccn1	growth inhibition	-3.85
CCC[CH2][Sn]([C]#[C][Sn]([CH2]CCC)([CH2]CCC)[CH2]CCC)([CH2]CCC)[CH2]CCC	growth inhibition	99.5
C/C=C(/C)c1ccccc1	growth inhibition	-1.1
CCCCOCCOCCOC(=O)c1ccc(C)cc1	growth inhibition	-13.8
O=C1/C(=C/c2ccc3c(c2)OCO3)CCC1CN1CCOCC1 (configuration not stated)	growth inhibition	90.8

Please look at the items below and tell me growth inhibition for each one, in order.
1. O=C(O)CC(=O)C(C(=O)O)C(CCc1ccccc1)C(C(=O)O)C(=O)CC(=O)O (configuration not stated)
2. O=C1OC(C2Cc3cc4c(cc3C2=O)CCC4)c2ccccc21 (configuration not stated)

# output
1. -19.7
2. -7.75

Give one value of growth inhibition per listed molecule.
1. O=c1[nH]c(-c2ccc(Cl)cc2)cs1
2. CC(C)=CCC(C)C

# output
1. -7
2. 6.85

----------
So I've got a bunch of compounds here, and I need their growth inhibition values.
# procedure_summary: NCI Yeast Anticancer Drug Screen. Data for the mlh1 rad18 strain (AID 175)
# test_settings: S. cerevisiae mlh1 rad18 strain growth inhibition; at 50.0 µM; stronger effect = higher value
About 79,000 compounds went through this panel and 15% of them were active in at least one assay; those are over-represented in the sample as a whole.
Give bare numbers, in %.

Give one value of growth inhibition per listed compound.
1. Oc1ccccc1-c1nnc2n1N=C(c1ccc(-c3ccccc3)cc1)CS2
2. O=C(Nc1nc2ncn(CC(COc3ccccc3)OC(=O)c3ccccc3)c2c(=O)[nH]1)c1ccccc1 (stereo not given)
3. N#CCC(=O)N/N=C(\C(=O)Nc1ccc(Cl)c(Cl)c1)C1CN(c2ccccc2)N=C1N (stereo not given)
4. CC1(C)CCC23CCC4(C)C(CCC5C6(C)CCC(=O)C(C)(C)C6CCC54C)C2C1OC3 (stereo not given)
5. CC(c1ccccc1)C(C)c1ccccc1 (stereo not given)
6. C=CCc1nc2c([nH]1)c(=O)n(C)c(=O)n2C
7. SCCc1ccccc1

# output
7.55
-6.65
-8.4
-5.1
-8.65
18.6
-3.15

----------
Can you tell me growth inhibition for the items I'm about to list?
# procedure_summary: NCI Yeast Anticancer Drug Screen. Data for the mlh1 rad18 strain (AID 175)
# test_settings: S. cerevisiae mlh1 rad18 strain growth inhibition; at 50.0 µM; stronger effect = higher value
The panel holds about 79,000 compounds, 15% with a hit somewhere; the sample as a whole holds those more often.
One number for each entry, in %.

Some solved entries appear below for comparison.
compound	growth inhibition / %
CC(=O)Nc1ccc(/C=N/Nc2nc3ccccc3s2)cc1	31.1
CCOC(=O)c1ccc(N=Cc2ccc(N(CCC#N)S(=O)(=O)c3ccccc3)cc2C)cc1	-3.95
CCOCC(=O)O	-1.25
CNc1ncnc2[nH]cc([N+](=O)[O-])c12	33.6
Cc1nn(C(=O)Cc2ccccc2)c2c1C(c1ccc(O)cc1O)SC(N)=N2 (stereo not drawn)	-36.5

# per-item lookup of growth inhibition; items listed below
1. CC(CO)c1ccccc1 (stereo not drawn)
2. CC1=CC(C)(C)Nc2ccccc21

# output
-4
8.45

Below are some compounds; for each one, tell me its growth inhibition.
1. O1[SiH]2[SiH]3O[SiH]3[SiH]3O[SiH]3[SiH]12 (stereo not drawn)
2. COC(=O)c1ccccc1NC(=O)Nc1cccc(Cl)c1C
3. CCCCCCCC1CC(OCC)OC(CCCCCCC)O1 (stereo not drawn)
4. O=C1NC(CN2CCCCC2)C(=O)NC1CN1CCCCC1 (stereo not drawn)
5. O=c1[nH]c(Sc2ccccc2)nc2ccccc12
6. O=C1C=C(NCCc2ccccc2)c2ccccc2C1=O

# output
[-26.6, 17.4, -18.4, 0, 7.25, -5.1]
